Entry source: patent US8071540B2

System: Staphylococcus aureus
Assay explanation: Bacterial lysis (broth dilution) assay, MBC
Format: cell-based
Settings: 150 mM NaCl (physiologic); 99.9% killing
Where no end group is shown, it is not given here.
Recorded endpoint: MBC, Staphylococcus aureus, 150 mM NaCl (µM)
Numbers only, in µM.

{"columns": ["Substance", "Recorded endpoint", "Numeric value"],
 "data": [
  ["RWIRVVQRWCRAIRHIWRRIRQGLRRWLRVV [WLSA-5, RWIRVVQRWCRAIRHIWRRIRQGLRRWLRVV]", "MBC, Staphylococcus aureus, 150 mM NaCl", 1],
  ["VRRVVRRVVRVVRRVVRRVRRVVRRVVRVV RRVVRR (VRRVVRRVVRVVRRVVRRVRRVVRRVVRVVRRVVRR; Antimicrobial peptide) [LBU-3]", "MBC, Staphylococcus aureus, 150 mM NaCl", 1.5]
]}

We now examine a further substance.
Consider the substance RRVVRRVRRVVRRVVRVVRRVVRRVRRVVRRVVRVVRRVVRR (RRVVRRVRRVVRRVVRVVRRVVRRVRRVVRRVVRVVRRVVRR; Antimicrobial peptide) [LBU-3.5] and give its recorded MBC, Staphylococcus aureus, 150 mM NaCl.
0.6

###

Exercise: for every item that follows, state its recorded MBC, Staphylococcus aureus, 150 mM NaCl.
Tested on: Staphylococcus aureus
Assay explanation: Bacterial lysis (broth dilution) assay, MBC
Type: cell-based
Settings: 150 mM NaCl (physiologic); 99.9% killing
Give bare numbers, in nM.

{"columns": ["Substance", "Subject of test", "Recorded endpoint", "Units", "Numeric value"],
 "data": [
  ["VRRVWRRVVRVVRRWVRRVRRVWRRVVRVV RRWVRR (VRRVWRRVVRVVRRWVRRVRRVWRRVVRVVRRWVRR; Antimicrobial peptide) [WLBU-3]", "Staphylococcus aureus", "MBC, Staphylococcus aureus, 150 mM NaCl", "nM", 600]
]}

Consider the substance RVVRVVRRWVRRVRRVWRRVVRVVRRWVRRVRRVWRRVVRVVRRWRVV (RVVRVVRRWVRRVRRVWRRVVRVVRRWVRRVRRVWRRVVRVVRRWRVV; Antimicrobial peptide) [WLBU-4] and give its recorded MBC, Staphylococcus aureus, 150 mM NaCl.
600

###

Test system: Methicillin Resistant S. aureus
Type: cell-based, Staphylococcus aureus
Design: unit not given here
Settings: 150 mM NaCl (physiologic); 99.9% killing
Where no end group is shown, it is not given here.
Exercise: for every item that follows, state its recorded MBC, Methicillin Resistant S. aureus, 150 mM NaCl.
Give bare numbers.

Solved entries:
{"columns": ["Substance", "Numeric value"],
 "data": [
  ["RRVVRRVRRVVRRVVRVVRRVVRRVRRVVRRVVRVVRRVVRR (RRVVRRVRRVVRRVVRVVRRVVRRVRRVVRRVVRVVRRVVRR; Antimicrobial peptide) [LBU-3.5]", 200],
  ["VRRVWRRVVRVVRRWVRRVRRVWRRVVRVV RRWVRR (VRRVWRRVVRVVRRWVRRVRRVWRRVVRVVRRWVRR; Antimicrobial peptide) [WLBU-3]", 100],
  ["RVVRVVRRWVRRVRRVWRRVVRVVRRWVRRVRRVWRRVVRVVRRWRVV (RVVRVVRRWVRRVRRVWRRVVRVVRRWVRRVRRVWRRVVRVVRRWRVV; Antimicrobial peptide) [WLBU-4]", 200]
]}

We now examine a further substance.
Consider the substance RRWVRRVRRVWRRVVRVVRRWVRR [WLBU-2, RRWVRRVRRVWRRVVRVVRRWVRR] and give its recorded MBC, Methicillin Resistant S. aureus, 150 mM NaCl.
100

###

System: Staphylococcus aureus
Assay explanation: Bacterial lysis (broth dilution) assay, MBC
Format: cell-based
Settings: 150 mM NaCl (physiologic); 99.9% killing
Where no end group is shown, it is not given here.
Exercise: for every item that follows, state its recorded MBC, Staphylococcus aureus, 150 mM NaCl.
One number for each entry, in µM.

Solved entries:
{"columns": ["Substance", "Units", "MBC, Staphylococcus aureus, 150 mM NaCl"],
 "data": [
  ["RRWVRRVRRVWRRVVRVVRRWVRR [WLBU-2, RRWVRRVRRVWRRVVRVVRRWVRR]", "µM", 0.6],
  ["LLP1: prototypical lentiviral lytic peptide, amino acids 828-856 of the HIV-1 viral isolate HXB2R Env (SEQ ID NO: 19) (RVIEVVQGACRAIRHIPRRIRQGLERIL; Human immunodeficiency virus type 1) [reference compound]", "µM", 16]
]}

We now examine a further substance.
Consider the substance RVIRVVQRACRAIRHIVRRIRQGLRRILRVV [LSA-5, RVIRVVQRACRAIRHIVRRIRQGLRRILRVV] and give its recorded MBC, Staphylococcus aureus, 150 mM NaCl.
1

###

System: Staphylococcus aureus
Assay explanation: Bacterial lysis (broth dilution) assay, MBC
Assay type: cell-based
Settings: 0 mM NaCl (10 mM phosphate buffer); 99.9% killing
Exercise: for every item that follows, state its recorded MBC, Staphylococcus aureus, 0 mM NaCl.

{"columns": ["Substance", "MBC, Staphylococcus aureus, 0 mM NaCl"],
 "data": [
  ["RVVRVVRRWVRRVRRVWRRVVRVVRRWVRRVRRVWRRVVRVVRRWRVV (RVVRVVRRWVRRVRRVWRRVVRVVRRWVRRVRRVWRRVVRVVRRWRVV; Antimicrobial peptide) [WLBU-4]", "3,000 nM"],
  ["VRRVWRRVVRVVRRWVRRVRRVWRRVVRVV RRWVRR (VRRVWRRVVRVVRRWVRRVRRVWRRVVRVVRRWVRR; Antimicrobial peptide) [WLBU-3]", "3,000 nM"]
]}

Consider the substance RVVRV VRRWV RR (RVVRVVRRWVRR; Antimicrobial peptide) [WLBU-1] and give its recorded MBC, Staphylococcus aureus, 0 mM NaCl.
30,000 nM
